Test system: everted segments of rat ileum
Assay summary: Influx of weak electrolytes into everted segments of rat ileum in vitro
Experimental conditions: Table III; 1 mM, pH 7.40, 1 min, 37C; mean SE (n)
Below: a set of entries, each annotated with reported Influx Ileum.

{"Molecule": "NC1CCCCC1", "Influx Ileum, nmol.100mg dry wt-1.min-1": 6}
{"Molecule": "CC(C)N", "Influx Ileum, nmol.100mg dry wt-1.min-1": 4}
{"Molecule": "CCCCCCC(=O)O", "Influx Ileum, nmol.100mg dry wt-1.min-1": 50}
{"Molecule": "CN1C(=O)NC(=O)C(C)(C2=CCCCC2)C1=O (stereo not shown) [Hexobarbital]", "Influx Ileum, nmol.100mg dry wt-1.min-1": 327}
{"Molecule": "NCc1ccccc1", "Influx Ileum, nmol.100mg dry wt-1.min-1": 155}
{"Molecule": "O=C(O)Cc1ccccc1", "Influx Ileum, nmol.100mg dry wt-1.min-1": 15}
{"Molecule": "CCCC(=O)O", "Influx Ileum, nmol.100mg dry wt-1.min-1": 11}
